# ASSAY_COMMENT: Hepatic intrinsic clearance following incubation in human liver microsomes
# Type: in vitro ADME
# TEST_PARAMETERS: 0.5 μM test compound, NADPH, 0-30 min, scaled to g liver
PROPERTY_LABEL: Human in vitro Clint (mL/min/g)

(1) CCc1cc([C@@H](C)N(C)C(=O)N2CCN3C(=O)C(CCO)(CCO)C[C@H]3[C@@H]2c2c[nH]nc2C)cc(C(F)(F)F)c1 [Compound 62]
(2) Cc1ccc(C)c([C@H]2[C@@H]3CC(CCO)(CCO)C(=O)N3CCN2C(=O)N(C)[C@H](C)c2cc(C(F)(F)F)cc(C(F)(F)F)c2)c1 [Compound 37]
(3) CCc1cc([C@@H](C)N(C)C(=O)N2CCN3C(=O)CC[C@H]3[C@@H]2c2ccc(F)cc2C)cc(C(F)(F)F)c1 [Compound 23]
Please put the entries in order of rising Human in vitro Clint. In your reply, arrange the labels in the requested order.
2, 3, 1
(2: 30 mL/min/g, 3: 78 mL/min/g, 1: 115 mL/min/g)

###

# SUBJECT_OF_TEST: NK1 Receptor (Homo sapiens)
# Construct: Measurement of NK1 Receptor Mediated Intracellular [Ca^2+]; Mobilization in U251 MG Cells Using FLIPR; endogenous in cells
# Sequence (P25103 whole entry): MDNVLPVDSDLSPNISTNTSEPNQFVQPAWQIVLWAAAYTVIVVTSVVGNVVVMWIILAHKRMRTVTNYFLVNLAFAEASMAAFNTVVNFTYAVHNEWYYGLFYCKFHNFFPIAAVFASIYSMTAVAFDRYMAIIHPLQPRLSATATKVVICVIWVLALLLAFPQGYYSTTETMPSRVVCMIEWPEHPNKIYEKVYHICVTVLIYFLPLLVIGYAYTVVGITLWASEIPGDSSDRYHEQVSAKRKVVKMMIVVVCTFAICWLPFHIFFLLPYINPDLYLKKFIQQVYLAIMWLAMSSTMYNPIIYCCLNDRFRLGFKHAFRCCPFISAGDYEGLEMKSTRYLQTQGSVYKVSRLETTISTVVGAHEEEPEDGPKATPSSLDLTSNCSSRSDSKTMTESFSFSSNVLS
# ASSAY_COMMENT: NK1 receptor mediated intracellular [Ca2+] mobilization in U251 MG cells using FLIPR
# TEST_PARAMETERS: antagonism of Substance P (EC80), Fluo-4, read-out: NK1R mediated intracellular [Ca^2+] mobilization IC 50
pIC50: −log10 of the molar value.
PROPERTY_LABEL: pIC50

Solved cases (8 shown):
Cc1ccc([C@H]2[C@@H]3CC(CCO)(CCO)C(=O)N3CCN2C(=O)N(C)[C@H](C)c2cc(Cl)cc(C(F)(F)F)c2)c(C)c1 = 10.27
COc1ccc(C2C3CCC(=O)N3CCN2C(=O)N(C)[C@H](C)c2cc(C(F)(F)F)cc(C(F)(F)F)c2)c(C)c1 (single isomer, unassigned) [Compound 18] = 8.94
CCc1cc([C@@H](C)N(C)C(=O)N2CCN3C(=O)CC[C@H]3[C@@H]2c2cccs2)cc(C(F)(F)F)c1 = 9.29
CCc1cc([C@@H](C)N(C)C(=O)N2CCN3C(=O)C(CCO)(CCO)C[C@H]3[C@@H]2c2ccc(O)cc2C)cc(C(F)(F)F)c1 = 10.23
CCc1cc([C@@H](C)N(C)C(=O)N2CCN3C(=O)CC[C@H]3[C@@H]2c2ccccc2C)nc(C(F)(F)F)c1 = 9.18
Cc1cc([C@@H](C)N(C)C(=O)N2CCN3C(=O)C(CCO)(CCO)CC3C2c2ccc(C)cc2C)cc(C(F)(F)F)c1 (mixture of isomers) = 10.02
C[C@H](c1cc(C(F)(F)F)cc(C(F)(F)F)c1)N(C)C(=O)N1CCN2C(=O)CC[C@H]2[C@@H]1c1ccccc1Cl (single isomer, unassigned) [Compound 72] = 10.70
CC(C)c1cc([C@@H](C)N(C)C(=O)N2CCN3C(=O)CC[C@H]3[C@@H]2c2cccc3c2CCC3)cc(C(F)(F)F)c1 = 8.46

(I) Cc1cccc(F)c1[C@H]1[C@@H]2CCC(=O)N2CCN1C(=O)N(C)[C@H](C)c1cc(C(F)(F)F)cc(C(F)(F)F)c1
(II) Cc1csc([C@H]2[C@@H]3CCC(=O)N3CCN2C(=O)N(C)[C@H](C)c2cc(C(F)(F)F)cc(C(F)(F)F)c2)c1C
(III) CCc1ccccc1[C@H]1[C@@H]2CCC(=O)N2CCN1C(=O)N(C)[C@H](C)c1cc(C(F)(F)F)cc(C(F)(F)F)c1 (single isomer, unassigned) [Compound 69]
(IV) Cc1n[nH]cc1[C@H]1[C@@H]2CCC(=O)N2CCN1C(=O)N(C)[C@H](C)c1cc(C(F)(F)F)cc(C(F)(F)F)c1
Ascending by pIC50, please: list the molecules accordingly. In your reply, arrange the labels in the requested order.
IV, III, II, I
(IV: 7.50, III: 7.96, II: 9.47, I: 9.89)

(1) Cc1cccc([C@H]2[C@@H]3CCC(=O)N3CCN2C(=O)N(C)[C@H](C)c2cc(C(C)C)cc(C(F)(F)F)c2)c1C
(2) CCc1cc([C@@H](C)N(C)C(=O)N2CCN3C(=O)CC[C@H]3[C@@H]2c2cscc2C)cc(C(F)(F)F)c1
(3) Cc1sccc1[C@H]1[C@@H]2CCC(=O)N2CCN1C(=O)N(C)[C@H](C)c1cc(C(F)(F)F)cc(C(F)(F)F)c1
Ascending by pIC50, please: list the molecules accordingly. In your reply, arrange the labels in the requested order.
2, 1, 3
(2: 9.00, 1: 9.51, 3: 9.82)

(P) Cc1cc([C@@H](C)N(C)C(=O)N2CCN3C(=O)CCC3C2c2ccc(C)cc2C)cc(C(F)(F)F)c1 (single isomer, unassigned) [Compound 5]
(Q) COc1ccc([C@H]2[C@@H]3CC(CCO)(CCO)C(=O)N3CCN2C(=O)N(C)[C@H](C)c2cc(C)cc(C(F)(F)F)c2)c(C)c1
(R) Cc1cc(F)ccc1C1C2CC(CCO)(CCO)C(=O)N2CCN1C(=O)N(C)[C@H](C)c1cc(C(F)(F)F)cc(C(F)(F)F)c1 (single isomer, unassigned) [Compound 14]
(S) CCc1cc([C@@H](C)N(C)C(=O)N2CCN3C(=O)CC[C@H]3[C@@H]2c2ccc(F)cc2C)cc(C(F)(F)F)c1
(T) Cc1cscc1[C@H]1[C@@H]2CCC(=O)N2CCN1C(=O)N(C)[C@H](C)c1cc(C(F)(F)F)cc(C(F)(F)F)c1
Ascending by pIC50, please: list the molecules accordingly. In your reply, arrange the labels in the requested order.
Q, P, T, R, S
(Q: 9.10, P: 9.36, T: 9.60, R: 10.03, S: 10.43)

(a) C[C@H](c1cc(C(F)(F)F)cc(C(F)(F)F)c1)N(C)C(=O)N1CCN2C(=O)CC[C@H]2[C@@H]1c1cccs1
(b) CCc1cc([C@@H](C)N(C)C(=O)N2CCN3C(=O)CC[C@H]3[C@@H]2c2ccccc2CC)cc(C(F)(F)F)c1 (single isomer, unassigned) [Compound 71]
(c) Cc1cc([C@@H](C)N(C)C(=O)N2CCN3C(=O)C(CCO)(CCO)C[C@H]3[C@@H]2c2c[nH]nc2C)cc(C(F)(F)F)c1
(d) Cc1cc(CN(C)C(=O)N2CCN3C(=O)C(CCO)(CCO)C[C@H]3[C@@H]2c2ccccc2C)nc(C(F)(F)F)c1
Parameters: sort_field (pIC50), sort_dir (desc). In your reply, arrange the labels in the requested order.
d, a, c, b

###

Recorded Human in vitro Clint by entry
# ASSAY_COMMENT: Hepatic intrinsic clearance following incubation in human liver microsomes
# Format: in vitro ADME
# TEST_PARAMETERS: 0.5 μM test compound, NADPH, 0-30 min, scaled to g liver

CCc1cc([C@@H](C)N(C)C(=O)N2CCN3C(=O)CC[C@H]3[C@@H]2c2cccc3c2CCC3)cc(C(F)(F)F)c1 [Compound 80] = >200 mL/min/g
Cc1cc([C@@H](C)N(C)C(=O)N2CCN3C(=O)C(CCO)(CCO)CC3C2c2ccc(C)cc2C)cc(C(F)(F)F)c1 (mixture of isomers) [Compound 8] = >200 mL/min/g

With those in mind, consider the next compound.
What does the data say about its Human in vitro Clint? Entry: Cc1ccc([C@@H]2[C@H]3CCC(=O)N3CCN2C(=O)N(C)Cc2cc(C(F)(F)F)cc(C(F)(F)F)c2)c(C)c1 (racemic) [Compound 3]
>200 mL/min/g

###

# SUBJECT_OF_TEST: NK1 Receptor (Homo sapiens)
# Construct: Measurement of NK1 Receptor Mediated Intracellular [Ca^2+]; Mobilization in U251 MG Cells Using FLIPR; endogenous in cells
# ASSAY_COMMENT: NK1 receptor mediated intracellular [Ca2+] mobilization in U251 MG cells using FLIPR
# TEST_PARAMETERS: antagonism of Substance P (EC80), Fluo-4, read-out: NK1R mediated intracellular [Ca^2+] mobilization IC 50
PROPERTY_LABEL: IC50 (nM)

Solved cases (5 shown):
Cc1cccc([C@H]2[C@@H]3CC(CCO)(CCO)C(=O)N3CCN2C(=O)N(C)[C@H](C)c2cc(C(F)(F)F)cc(C(F)(F)F)c2)c1C [Compound 39] = 0.119
CCc1cc([C@@H](C)N(C)C(=O)N2CCN3C(=O)CC[C@H]3[C@@H]2c2sccc2C)cc(C(F)(F)F)c1 [Compound 51] = 0.055
Cc1cc([C@@H](C)N(C)C(=O)N2CCN3C(=O)CC[C@H]3[C@@H]2c2sccc2C)cc(C(F)(F)F)c1 [Compound 52] = 0.353
Cc1ccc(C2C3CCC(=O)N3CCN2C(=O)N(C)[C@H](C)c2cc(C(F)(F)F)cc(C(F)(F)F)c2)c(C)c1 (single isomer, unassigned) [Compound 2] = 7.79
CCc1ccccc1[C@H]1[C@@H]2CCC(=O)N2CCN1C(=O)N(C)[C@H](C)c1cc(C(F)(F)F)cc(C(F)(F)F)c1 [Compound 68] = 0.26

(I) Cc1cc(F)ccc1[C@H]1[C@@H]2CCC(=O)N2CCN1C(=O)N(C)[C@H](C)c1cc(C(C)C)cc(C(F)(F)F)c1 [Compound 22]
(II) Cc1cc(O)ccc1[C@H]1[C@@H]2CCC(=O)N2CCN1C(=O)N(C)[C@H](C)c1cc(C(F)(F)F)cc(C(F)(F)F)c1 [Compound 27]
Of I and II , which shows the smaller IC50 value? I would appreciate it if you answered with the label of your choice.
II

(A) Cc1ccc([C@@H]2[C@H]3CC(CCO)(CCO)C(=O)N3CCN2C(=O)N(C)Cc2cc(C(F)(F)F)cc(C(F)(F)F)c2)c(C)c1 (racemic) [Compound 9]
(B) C[C@H](c1cc(C(F)(F)F)cc(C(F)(F)F)c1)N(C)C(=O)N1CCN2C(=O)CC[C@H]2[C@@H]1c1ccccc1Cl (single isomer, unassigned) [Compound 73]
(C) C[C@H](c1cc(C(F)(F)F)cc(C(F)(F)F)c1)N(C)C(=O)N1CCN2C(=O)CC[C@H]2[C@@H]1c1ccc(F)cc1Cl (single isomer, unassigned) [Compound 83]
(D) CCc1cc([C@@H](C)N(C)C(=O)N2CCN3C(=O)CC[C@H]3[C@@H]2c2c[nH]nc2C)cc(C(F)(F)F)c1 [Compound 61]
Parameters: sort_field (IC50), sort_dir (desc). In your reply, arrange the labels in the requested order.
D, B, A, C
(D: 59 nM, B: 1.38 nM, A: 0.18 nM, C: 0.06 nM)

Where these numbers come from: patent US20160207930A1
